target: T1, hErbB3.hFc (soluble dimeric human ErbB3 extracellular domain fused to human Fc) (human); test: SPR (Biacore), 25 C, mAb capture format
T1 construct: called dimeric
T1 sequence (chain, as listed by the source limits assumed): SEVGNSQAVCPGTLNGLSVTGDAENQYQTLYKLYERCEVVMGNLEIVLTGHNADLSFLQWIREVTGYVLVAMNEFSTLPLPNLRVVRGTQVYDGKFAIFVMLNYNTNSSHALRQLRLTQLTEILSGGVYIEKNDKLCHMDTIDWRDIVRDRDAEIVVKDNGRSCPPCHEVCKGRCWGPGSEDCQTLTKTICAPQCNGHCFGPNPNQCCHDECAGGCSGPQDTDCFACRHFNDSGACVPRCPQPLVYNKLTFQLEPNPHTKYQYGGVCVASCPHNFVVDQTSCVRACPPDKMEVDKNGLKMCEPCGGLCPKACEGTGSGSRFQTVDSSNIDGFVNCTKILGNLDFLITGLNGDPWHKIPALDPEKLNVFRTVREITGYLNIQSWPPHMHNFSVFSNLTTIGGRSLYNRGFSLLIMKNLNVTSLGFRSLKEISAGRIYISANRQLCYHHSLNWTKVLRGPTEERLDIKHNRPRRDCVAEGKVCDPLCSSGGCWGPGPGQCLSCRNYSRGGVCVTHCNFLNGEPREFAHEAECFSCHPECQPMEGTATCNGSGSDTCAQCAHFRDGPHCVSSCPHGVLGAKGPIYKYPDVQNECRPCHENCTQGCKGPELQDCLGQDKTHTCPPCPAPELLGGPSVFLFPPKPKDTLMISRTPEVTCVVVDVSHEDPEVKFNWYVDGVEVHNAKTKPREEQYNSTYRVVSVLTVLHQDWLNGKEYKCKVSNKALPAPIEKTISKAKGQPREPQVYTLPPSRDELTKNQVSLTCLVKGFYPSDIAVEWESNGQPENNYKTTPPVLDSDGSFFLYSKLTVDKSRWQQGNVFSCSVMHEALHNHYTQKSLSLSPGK
Below is a list of entries, each paired with its recorded T½ value.
Your answer should be a number followed by the unit of measure.

>  <binder>
H2M1936N (antibody, V domains shown, Hybridoma chimeric antibody: human variable domains, mouse IgG2 Fc (H2M prefix)) VH: EMQLVESGGGLVQPDRSLRLSCAASGFNFDNYAIHWVRQAPGKGLEWVSGISWNSGNIGYADSVKGRFTISRDNAKNSLFLLMNSLRPDDSALYYCTRGYNWNALSPMDVWGQGTTVTVSS VL: DIQMTQSPSSLSASVGDRVTVTCRASQGISNYLAWYQQKPGKVPKLLIYAASTLQSGVPSRFSGSGSGTDFTLTISSLQPEDVASYYCQNYNSAPMTFGQGTKVEIK

>  <T½>
2.77 h

$$$$

Lab book: T½ of H1M1828N (antibody, V domains shown, Hybridoma chimeric antibody: human variable domains, mouse constant domains (H1M prefix, mouse Fc)) VH: EVQLVESGGGLVQPGRSLRLSCAASGFTFDDYAMYWVRQAPGKGLEWVSGISWNSGSIGYADSVKGRFTISRDNAKNSLYLQMDSLRAEDTALYYCARDMMEVDLYGMDVWGQGTTVTVSS VL: DIQMTQSPSSVSASVGDRVTITCRASQDISSWLAWYQQKPGTAPKFLIYETSSLQSGVPSRFSGSGSGTDFILTISSLQPEDFATYYCQQTDSFPHTFGQGTKLEIR noted as 4.43 h

Lab book: T½ of H2M1827N (antibody, V domains shown, Hybridoma chimeric antibody: human variable domains, mouse IgG2 Fc (H2M prefix)) VH: EVQLVESGGGVVRPGGSLRLSCAASGFTFDDYGMSWVRQAPGKGLECVSGISWNGGNTDYADSVKGRFTISRDNAKNSLYLQMNSLRAEDTALYHCARDGGDWDYFDLWGRGTLVTVSS VL: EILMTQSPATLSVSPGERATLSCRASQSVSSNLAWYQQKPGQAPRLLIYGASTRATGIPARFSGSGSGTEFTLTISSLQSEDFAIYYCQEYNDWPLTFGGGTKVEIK noted as 25.4 h
